Tested on: U251 CNS
assay_info: NCI tumour cell line growth inhibition, 48 h
measured_property: TGI

stdin: Using the record for "O=Cc1ccccc1COC(=O)c1cc(C(=O)OCc2ccccc2C=O)c(C(=O)OCc2ccccc2C=O)cc1C(=O)OCc1ccccc1C=O" , state its measured TGI.
stdout: > 100 µM

stdin: Using the record for C[N+]1(C)CCc2cc(O)c(O)cc2C1Cc1ccc(O)c(O)c1 (stereo not given) , state its measured TGI.
stdout: > 100 µM

###

Listed here are compounds together with their documented TGI.
Test system: SK-MEL-2 melanoma
assay_info: NCI tumour cell line growth inhibition, 48 h
The figure you give is taken to be in µM; do not add the unit.

CO/C=C(/C(=O)OC)c1ccccc1COc1cccc(C(F)(F)F)c1 | 34.2
CCC(=O)Oc1ccc2c(c1)c(=O)c1c(NCCCN(C)C)ccc3nnn2c31 | 26.4
CN(C(=O)Cc1cccc(N=C=S)c1)[C@H]1CCCC[C@@H]1N1CCCC1 | 34.4
CCCC(CCC)NCC(O)c1cc(-c2ccc(C(F)(F)F)cc2)nc(C(F)(F)F)c1 (configuration not stated) | 3.92
N#Cc1cc(-c2cc3ccccc3o2)oc1N | 4.49
Nc1nc(Nc2cccnc2)sc1C(=O)c1ccccc1F | 9.79

stdin: Using the record for "N#Cc1c(-c2ccccc2)[nH]c2ccc(Cl)cc2c1=O" , state its measured TGI.
stdout: 94.3

stdin: Using the record for "CN1CCN(CCCNc2nc3ccc(Oc4ccc(NC(=O)Nc5cc(C(F)(F)F)ccc5F)cc4)cc3[nH]2)CC1" , state its measured TGI.
stdout: 8.66

###

Tested on: HCT-116 colon
assay_info: NCI tumour cell line growth inhibition, 48 h
measured_property: TGI

Some entries whose results are on file:
CC(C)c1ccc(-c2cc(-c3cn[nH]c3-c3ccccn3)ccn2)cc1 | > 25 µM
COc1ccc(C[N+](C)(C)N)cc1OC | > 100 µM
Cc1ccc(NC(=O)c2cccc(C(C)(C)C#N)c2)cc1Nc1ccc2ncn(C)c(=O)c2c1 | > 100 µM
C=C1C(=O)O[C@H]2[C@H]1CC/C(COC(=O)NCCCCNC(=O)OC/C1=C/CC[C@@]3(C)O[C@H]3[C@H]3OC(=O)C(=C)[C@@H]3CC1)=C\CC[C@@]1(C)O[C@@H]21 | 2.63 µM
N#CCCC(CCC#N)(CCC#N)NO | > 100 µM
CC1(C)OC(=O)N(c2ccccc2)C12C=Cc1cc([N+](=O)[O-])ccc1O2 (stereo unspecified) | > 100 µM
C(/C=C/Nc1ccc(Oc2ccccc2)cc1)=Nc1ccc(Oc2ccccc2)cc1 | 31.2 µM
Clc1cc(Cl)c2ns[s+]c2c1Cl | > 100 µM

stdin: Look up and report measured TGI (HCT-116 colon) for the following compound: "Cc1ccc(N=C/C=C(\Nc2ccc(C)cc2)c2ccc(Cl)cc2)cc1"
stdout: 46.8 µM

stdin: Look up and report measured TGI (HCT-116 colon) for the following compound: CCCCC1Cc2ccccc2-c2nc3ccccc3n21 (stereo unspecified)
stdout: 26.6 µM

stdin: Look up and report measured TGI (HCT-116 colon) for the following compound: "O=C(N/N=C\C=C\c1ccc([N+](=O)[O-])o1)C(=O)N/N=C\C=C\c1ccc([N+](=O)[O-])o1"
stdout: > 100 µM

stdin: Look up and report measured TGI (HCT-116 colon) for the following compound: "COCc1nc2c(OC)c(-c3nc4nc(N5CCN(C)CC5)ccc4[nH]3)cc(OC)c2n1C"
stdout: > 100 µM

stdin: Look up and report measured TGI (HCT-116 colon) for the following compound: "O=c1cc(N2CCCC2)[nH]c(=O)n1-c1cccc(Cl)c1"
stdout: > 100 µM

stdin: Look up and report measured TGI (HCT-116 colon) for the following compound: "CCCc1c(O)nc(Nc2nc3ccccc3[nH]2)[nH]c1=O"
stdout: > 100 µM

stdin: Look up and report measured TGI (HCT-116 colon) for the following compound: "CN(C)CCNc1ccc(CO)c2oc3ccc(O)cc3c(=O)c12"
stdout: 52.2 µM
